Target: Estrogen receptor beta (Homo sapiens)
Assay Procedure: displacement of fluorescent estrogen from ERbeta – cell-based, Cos7 ERbeta-GFP, flow cytometry, primary screen (AID 1210);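 further: 0% = DMSO vehicle wells and 100% = complete loss of labeled estradiol signal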
Test Parameters: fluorescent estrogen binding, at 10 µM
Activity calls are given as the source filed them.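 How the source made its calls: active means blocks over 70% of labeled estradiol binding at 10 µM, or over a set limit at 100 nM; inactive means the rest.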
# output must be one of TRUE (active), FALSE (inactive)

Consider the following illustrative entries.
Molecule	Target	Classification
CCc1ccc2nc(NC(=O)c3ccc4c(=O)[nH]c(CN5CCOCC5)nc4c3)sc2c1	Estrogen receptor beta (Homo sapiens)	FALSE
Cn1c(SCC(=O)N2c3ccccc3CCc3ccccc32)nnc1-c1cc2ccccc2cc1O	Estrogen receptor beta (Homo sapiens)	FALSE
CCc1ccc(Nc2cc(C(=O)NCCCN3CCOCC3)c3ccccc3n2)cc1	Estrogen receptor beta (Homo sapiens)	FALSE
COc1ccc(OC)c(C2Nc3c(Cl)ccc(C(=O)O)c3C3C=CCC32)c1 (configuration not stated)	Estrogen receptor beta (Homo sapiens)	FALSE
COC(=O)c1cc(-c2c(C)oc3cc(O)ccc3c2=O)c(C)o1	Estrogen receptor beta (Homo sapiens)	FALSE

Field: next molecule
Query block: So what was the verdict on `COc1cc(/C=C2\OC(=O)c3c(OC)cccc32)ccc1O` in this test?
Result block: FALSE

###

Target: Estrogen receptor beta (Homo sapiens)
Assay Procedure: displacement of fluorescent estrogen from ERbeta – cell-based, Cos7 ERbeta-GFP, flow cytometry, primary screen (AID 1210);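 further: 0% = DMSO vehicle wells and 100% = complete loss of labeled estradiol signal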
Test Parameters: fluorescent estrogen binding, at 10 µM, stronger effect = higher value
Heads up, the class ranges for inhibition are low band = under 20%, middle band = from 20% up to 40%, high band = 40% and over

Compound	Classification
O=C1c2ccccc2C(=O)N1/N=C/c1ccc(O)c(O)c1	high band

Query block: Kindly identify the class of `NNc1nc2sc3c(c2c(=O)[nH]1)CCc1ccccc1-3` .
Result block: middle band

Query block: Kindly identify the class of CCOc1cc2c(c([N+](=O)[O-])c1)NC(c1ccc(Br)cc1)C1CC=CC21 (centres undefined) .
Result block: low band

Query block: Kindly identify the class of `CCCSc1nc(C)c(-c2csc(C(C#N)=C3CCCC3)n2)cc1C#N` .
Result block: middle band

Query block: Kindly identify the class of CC(=O)OC1CC2(C)C(=O)CCC2C2CCc3cc(O)ccc3C12 (centres undefined) .
Result block: high band

###

Target: Estrogen receptor beta (Homo sapiens) (UniProt Q92731)
Sequence (Q92731 whole entry, looked up): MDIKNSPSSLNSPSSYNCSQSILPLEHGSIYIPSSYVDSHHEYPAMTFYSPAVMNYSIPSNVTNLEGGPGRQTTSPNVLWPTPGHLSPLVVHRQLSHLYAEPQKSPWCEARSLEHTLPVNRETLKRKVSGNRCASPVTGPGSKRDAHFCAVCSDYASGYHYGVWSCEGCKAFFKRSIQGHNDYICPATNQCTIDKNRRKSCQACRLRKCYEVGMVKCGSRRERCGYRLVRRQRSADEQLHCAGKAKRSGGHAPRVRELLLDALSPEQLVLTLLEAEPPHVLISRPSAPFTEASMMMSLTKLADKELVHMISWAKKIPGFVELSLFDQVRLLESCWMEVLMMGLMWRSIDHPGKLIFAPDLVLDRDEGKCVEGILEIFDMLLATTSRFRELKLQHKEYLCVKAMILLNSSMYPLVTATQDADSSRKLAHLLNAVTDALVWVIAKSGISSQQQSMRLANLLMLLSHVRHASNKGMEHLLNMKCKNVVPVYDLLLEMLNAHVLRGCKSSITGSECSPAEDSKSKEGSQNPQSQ
Assay Procedure: displacement of fluorescent estrogen from ERbeta – cell-based, Cos7 ERbeta-GFP, flow cytometry, primary screen (AID 1210);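 further: 0% = DMSO vehicle wells and 100% = complete loss of labeled estradiol signal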
Test Parameters: fluorescent estrogen binding, ligand binding inhibition, at 0.1 µM, stronger effect = higher value
Heads up, the class ranges for inhibition are zone 1: < 10%; zone 2: ≥ 10% and < 20%; zone 3: ≥ 20%

Consider the following illustrative entries.
Compound	Classification
O=C(Nc1cc(C(F)(F)F)ccc1N1CCOCC1)C1Cc2ccccc2CN1C(=O)c1ccco1 (configuration not stated)	zone 2
Cc1nnc(NC(=O)Cc2cccs2)s1	zone 3
Cc1ccc(C(=O)ONc2ccc(N=NC(=O)c3ccccc3O)cc2)cc1	zone 3
Cc1ccc(Nc2nnc(SCC(=O)NCc3ccco3)s2)cc1	zone 2
O=C1c2ccccc2NC(c2cccnc2)N1c1ccccc1F (configuration not stated)	zone 3

Query block: Kindly identify the class of `O=Cc1ccc2oc3nc4n(c(=O)c3c(=O)c2c1)CCCS4` .
Result block: zone 1

Query block: Kindly identify the class of `Cc1noc(C)c1COC(=O)c1cc2c3ccccc3n(C)c2s1` .
Result block: zone 1

Query block: Kindly identify the class of `COc1ccc(/C=N/NC(=O)c2nc(-c3ccccc3)cc(-c3ccccc3)n2)cc1O` .
Result block: zone 3

###

Target: Estrogen receptor beta (Homo sapiens) (UniProt Q92731)
Assay Procedure: displacement of fluorescent estrogen from ERbeta – cell-based, Cos7 ERbeta-GFP, flow cytometry, primary screen (AID 1210);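 further: 0% = DMSO vehicle wells and 100% = complete loss of labeled estradiol signal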
Test Parameters: fluorescent estrogen binding, at 10 µM, stronger effect = higher value
Reported inhibition is given for each of the following molecules.
Your answer is read as %, so omit the unit and give the number.

Molecule	inhibition / %
CCSc1nc2c(cnn2-c2ccc(C)cc2)c(=O)[nH]1	31
CN(CC(=O)NC(=O)NCc1ccco1)Cc1nc2ccccc2c(=O)[nH]1	14
Cc1cnc(C(=O)OCC(=O)c2csc(N3CCCCC3)n2)cn1	47
COc1ccc2[nH]c3c(c2c1)CCn1c-3nc2ccccc2c1=O	16
O=c1[nH]cnc2c1sc1nc3c(c(-c4ccc(Cl)cc4)c12)CCC3	51

Query block: Fill in reported inhibition for this entry: `Cc1ccc(S(=O)(=O)Cc2ccc(C(=O)N3CCc4ccccc4C3)o2)cc1`
Result block: 43

Query block: Fill in reported inhibition for this entry: `CCCCCCc1cc2c3c(c(=O)oc2cc1OCC(N)=O)CCC3`
Result block: 12

Query block: Fill in reported inhibition for this entry: `Cc1ccccc1NC(=O)CSc1nnc(-c2ccco2)c(-c2ccco2)n1`
Result block: 31

Query block: Fill in reported inhibition for this entry: `CC(C)CC(=O)Nc1ccc(C(=O)COc2ccc(-c3nnco3)cc2)cc1`
Result block: 44

Query block: Fill in reported inhibition for this entry: COc1ccc2c(c1)C1C=CCC1C(c1cc3c(cc1Br)OCO3)N2 (stereo unspecified)
Result block: 0

Query block: Fill in reported inhibition for this entry: `O=Cc1ccc2oc3nc4n(c(=O)c3c(=O)c2c1)CCCS4`
Result block: 15

Query block: Fill in reported inhibition for this entry: `Cc1nn(-c2ccccc2)c2sc(C(=O)c3c(N)n(C)c(=O)n(C)c3=O)cc12`
Result block: 22

Query block: Fill in reported inhibition for this entry: `N#Cc1c2c(c(=O)n3c1[nH]c1ccccc13)CCCC2`
Result block: 13

###

Target: Estrogen receptor beta (Homo sapiens)
Assay Procedure: displacement of fluorescent estrogen from ERbeta – cell-based, Cos7 ERbeta-GFP, flow cytometry, primary screen (AID 1210);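 further: 0% = DMSO vehicle wells and 100% = complete loss of labeled estradiol signal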
Test Parameters: fluorescent estrogen binding, at 10 µM
The source made the active and inactive calls.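 Rule for the calls: active = blocks over 70% of labeled estradiol binding at 10 µM, or over a set limit at 100 nM; inactive = the rest.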
# output must be one of YES for active, NO for inactive

Query block: So what was the verdict on `CC(=O)c1cccc(NC(=O)Cc2cccs2)c1` in this test?
Result block: NO

Query block: So what was the verdict on `CC1(C)Cc2[nH]c(=O)c(C(=O)O)cc2CO1` in this test?
Result block: NO

###

Target: Estrogen receptor beta (Homo sapiens)
Assay Procedure: displacement of fluorescent estrogen from ERbeta – cell-based, Cos7 ERbeta-GFP, flow cytometry, primary screen (AID 1210);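 further: 0% = DMSO vehicle wells and 100% = complete loss of labeled estradiol signal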
Test Parameters: fluorescent estrogen binding, ligand binding inhibition, at 0.1 µM, stronger effect = higher value
Reported Metric: inhibition (%)
Your answer is read as %, so omit the unit and give the number.

Molecule	Value Observed
NC(=O)c1oc2ccccc2c1NC(=O)c1nc2ccccc2s1	10
Oc1ccc(-c2cn3c(n2)SCC3)cc1O	22
O=C(Nc1ccc(-c2nc3ccc(NC(=O)c4cccs4)cc3[nH]2)cc1)c1cccs1	18
COc1cc2c(cc1OC)C(Cc1ccc(O)cc1)N(C)CC2 (centres undefined)	6
CC1=C(SCCC#N)S/C(=C2\SC(C)=C(SCCC#N)S2)S1	11

Query block: Fill in reported inhibition for this entry: `Oc1ccc(-c2cn3cc(C(F)(F)F)ccc3n2)cc1`
Result block: 10

Query block: Fill in reported inhibition for this entry: `COc1ccc2nc3oc(C(=O)N4CCN(c5cccc(C(F)(F)F)c5)CC4)cc3cc2c1`
Result block: 47

Query block: Fill in reported inhibition for this entry: `O=C(Nc1ccc(N2CCCC2)cc1)C(c1ccccc1)c1ccccc1`
Result block: 19

Query block: Fill in reported inhibition for this entry: Cc1ccc(C(=O)CSC2=C(C#N)C(c3ccco3)CC(=O)N2)c(C)c1 (centres undefined)
Result block: 14

Query block: Fill in reported inhibition for this entry: `COc1ccc(NC(=O)c2ccco2)cc1N`
Result block: 17

###

Reported inhibition is given for each of the following compounds.
Target: Estrogen receptor beta (Homo sapiens)
Assay Procedure: displacement of fluorescent estrogen from ERbeta – cell-based, Cos7 ERbeta-GFP, flow cytometry, primary screen (AID 1210);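 further: 0% = DMSO vehicle wells and 100% = complete loss of labeled estradiol signal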
Test Parameters: fluorescent estrogen binding, at 10 µM, stronger effect = higher value
Your answer is read as %, so omit the unit and give the number.

Consider the worked cases shown below.
Compound	Target	Value Observed
O=C1c2ccccc2NC(c2ccc(O)cc2)N1/N=C/c1ccc(O)cc1 (stereo not drawn)	Estrogen receptor beta (Homo sapiens)	71
CC1(N2CCOCC2)CC2(O)C(=[N+]1[O-])CCc1nonc12 (stereo not drawn)	Estrogen receptor beta (Homo sapiens)	49

Let's switch to this compound now.
Query block: Tell me inhibition of N#CC1=C(N)OC2=C(CCC/C2=C/c2ccoc2)C1c1ccoc1 (stereo not drawn) when tested on Estrogen receptor beta (Homo sapiens).
Result block: 20

###

Target: Estrogen receptor beta (Homo sapiens)
Assay Procedure: displacement of fluorescent estrogen from ERbeta – cell-based, Cos7 ERbeta-GFP, flow cytometry, primary screen (AID 1210);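 further: 0% = DMSO vehicle wells and 100% = complete loss of labeled estradiol signal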
Test Parameters: fluorescent estrogen binding, at 10 µM
The source made the active and inactive calls.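 Rule for the calls: active = blocks over 70% of labeled estradiol binding at 10 µM, or over a set limit at 100 nM; inactive = the rest.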
# output must be one of y (active), n (inactive)

Consider the following illustrative entries.
Compound	Classification
O=C(Nc1cccc2cccc(NC(=O)c3ccco3)c12)c1ccco1	n
Cc1cc(C)c2c(c1)NC(c1cc3c(cc1Br)OCO3)C1CC=CC21 (configuration not stated)	n
CCc1cccc2c(C(=O)Cn3nnc(-c4ccc(OC)c(OC)c4)n3)c[nH]c12	n
Nc1ccc2oc(-c3ccccc3Cl)cc(=O)c2c1O	n
COC(=O)c1ccc(C2Nc3ccc(/C(C)=N/NC(=O)C(OC)c4ccccc4)cc3C3C=CCC32)cc1 (configuration not stated)	n

Field: next compound
Query block: So what was the verdict on `CCc1ccc2c(c1)[C@H]1OCC[C@H]1[C@@H](c1cccs1)N2` in this test?
Result block: n
